Test system: HCoV-OC43 gRNA and sgRNA
Format: binding
Settings: type n_48_v; 48 hpi; OC43 Probe II capture on infected cells
recorded metric: target (unweighted spectral count, OC43 Probe II)

[[record]]
molecule = "PABPN1 (protein, UniProt Q86U42 2-306, looked up) Polyadenylate-binding protein …: AAAAAAAAAAGAAGGRGSGPGRRRHLVPGAGGEAGEGAPGGAGDYGNGLESEELEPEELLLEPEPEPEPEEEPPRPRAPPGAPGPGPGSGAPGSQEEEEEPGLVEGDPGDGAIEDPELEAIKARVREMEEEAEKLKELQNEVEKQMNMSPPPGNAGPVIMSIEEKMEADARSIYVGNVDYGATAEELEAHFHGCGSVNRVTILCDKFSGHPKGFAYIEFSDKESVRTSLALDESLFRGRQIKVIPKRTNRPGISTTDRGFPRARYRARTTNYNSSRSRFYSGFNSRPRGRVYRGRARATSWYSPY"
readout_number = 8


Entry source: patent US20230407373A1
